Bridge positions count the residues as written; N and C are the ends. Square brackets hold non-standard residues; d marks the D form. Peptide text beside a SMILES is read from it. d2Nal = N[C@H](Cc1ccc2ccccc2c1)C(=O)O
measured-parameter: IC50 (nM)
Output spec: scalar in nM, unitless text.

Q: Kindly state the measured IC50 obtained for CC(C)[C@H](NC(=O)[C@H](CCCCN)NC(=O)[C@@H](Cc1c[nH]c2ccccc12)NC(=O)[C@H](Cc1ccc(O)cc1)NC(=O)[C@H](Cc1ccccc1)NC(=O)[C@H](N)Cc1ccccc1)C(=O)N[C@@H](Cc1ccccc1)C(=O)N[C@H](Cc1ccc2ccccc2c1)C(N)=O [CAS_150155-61-6] (H-[dF]FY[dW]KVF[d2Nal]-NH2) with Somatostatin receptor type 3 (Homo sapiens, UniProt P32745).
Sequence (P32745 whole entry): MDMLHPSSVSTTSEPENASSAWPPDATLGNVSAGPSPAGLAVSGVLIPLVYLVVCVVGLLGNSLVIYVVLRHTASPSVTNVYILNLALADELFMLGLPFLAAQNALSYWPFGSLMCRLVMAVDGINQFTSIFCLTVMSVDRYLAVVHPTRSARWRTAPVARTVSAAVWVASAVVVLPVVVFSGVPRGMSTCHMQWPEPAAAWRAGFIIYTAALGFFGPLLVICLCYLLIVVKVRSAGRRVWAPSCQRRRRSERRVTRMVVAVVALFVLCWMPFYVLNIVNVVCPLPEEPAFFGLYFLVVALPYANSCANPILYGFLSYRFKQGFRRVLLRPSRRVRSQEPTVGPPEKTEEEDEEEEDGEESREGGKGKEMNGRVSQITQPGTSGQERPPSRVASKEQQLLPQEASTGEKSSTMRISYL
A: 177

Q: Under Somatostatin receptor type 3 (Homo sapiens, UniProt P32745): IC50 value of C[C@@H](O)[C@@H]1NC(=O)[C@H](CCCCN)NC(=O)[C@@H](Cc2c[nH]c3ccccc23)NC(=O)[C@H](Cc2ccccc2)NC(=O)[C@H](Cc2ccccc2)NC(=O)[C@H](N)CSSC[C@H](C(N)=O)NC(=O)[C@H](Cc2ccccc2)NC1=O (H-[dC]FF[dW]KTF[dC]-NH2; disulfide 1-8) ?
A: 61.6

Q: Write down the reported IC50 of `CC(C)[C@@H]1NC(=O)[C@H](CCCCN)NC(=O)[C@@H](Cc2c[nH]c3ccccc23)NC(=O)[C@H](Cc2ccc(O)cc2)NC(=O)[C@@H](NC(=O)[C@H](N)Cc2ccc3ccccc3c2)CSSC[C@@H](C(=O)N[C@H](C(N)=O)[C@@H](C)O)NC1=O` , test system: Somatostatin receptor type 3 (Homo sapiens, UniProt P32745).
A: 107

Q: So what IC50 did `CC[C@@H]1NC(=O)[C@H](CCCCN)NC(=O)[C@@H](Cc2c[nH]c3ccccc23)NC(=O)[C@H](Cc2ccc(O)cc2)NC(=O)[C@@H](NC(=O)[C@H](N)Cc2ccccc2)CSSC[C@@H](C(=O)N[C@H](C(N)=O)[C@@H](C)O)NC1=O` get with Somatostatin receptor type 3 (Homo sapiens, UniProt P32745)?
A: 89
